Molecular target: TPM3-NTRK1-G667C (Homo sapiens, UniProt P04629, G667C)
Construct: expressed in transfected cells; host or cells: Ba/F3; the other entry of the earlier key: TPM3 (P06753, Tropomyosin alpha-3 chain)
Sequence (P04629 510-796 G667C limits assumed): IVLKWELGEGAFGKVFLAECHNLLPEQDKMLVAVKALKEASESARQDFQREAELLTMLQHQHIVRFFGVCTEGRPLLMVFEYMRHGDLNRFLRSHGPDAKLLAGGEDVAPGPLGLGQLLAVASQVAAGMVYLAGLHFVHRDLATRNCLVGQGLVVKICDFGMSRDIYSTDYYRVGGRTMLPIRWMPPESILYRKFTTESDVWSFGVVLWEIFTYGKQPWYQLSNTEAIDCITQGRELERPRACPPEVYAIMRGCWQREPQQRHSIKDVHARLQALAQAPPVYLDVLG
Assay: Viability of Ba/F3 expressing TPM3-NTRK1-G667C
Assay type: cell-based
Details: read-out: IC50 (viability rate)
pIC50: −log10 of the molar value.

# entry-smiles, pIC50
data = [
    ("CCc1nc(C(N)=O)c(Nc2ccc(N3CCC(N4CCN(C)CC4)CC3)c(OC)c2)nc1NC1CCOCC1", 7.90),
]

====

Biological target: EML4-ALK WT (Homo sapiens, UniProt Q9UM73)
Sequence (Q9UM73 with tags, fused parts or gaps): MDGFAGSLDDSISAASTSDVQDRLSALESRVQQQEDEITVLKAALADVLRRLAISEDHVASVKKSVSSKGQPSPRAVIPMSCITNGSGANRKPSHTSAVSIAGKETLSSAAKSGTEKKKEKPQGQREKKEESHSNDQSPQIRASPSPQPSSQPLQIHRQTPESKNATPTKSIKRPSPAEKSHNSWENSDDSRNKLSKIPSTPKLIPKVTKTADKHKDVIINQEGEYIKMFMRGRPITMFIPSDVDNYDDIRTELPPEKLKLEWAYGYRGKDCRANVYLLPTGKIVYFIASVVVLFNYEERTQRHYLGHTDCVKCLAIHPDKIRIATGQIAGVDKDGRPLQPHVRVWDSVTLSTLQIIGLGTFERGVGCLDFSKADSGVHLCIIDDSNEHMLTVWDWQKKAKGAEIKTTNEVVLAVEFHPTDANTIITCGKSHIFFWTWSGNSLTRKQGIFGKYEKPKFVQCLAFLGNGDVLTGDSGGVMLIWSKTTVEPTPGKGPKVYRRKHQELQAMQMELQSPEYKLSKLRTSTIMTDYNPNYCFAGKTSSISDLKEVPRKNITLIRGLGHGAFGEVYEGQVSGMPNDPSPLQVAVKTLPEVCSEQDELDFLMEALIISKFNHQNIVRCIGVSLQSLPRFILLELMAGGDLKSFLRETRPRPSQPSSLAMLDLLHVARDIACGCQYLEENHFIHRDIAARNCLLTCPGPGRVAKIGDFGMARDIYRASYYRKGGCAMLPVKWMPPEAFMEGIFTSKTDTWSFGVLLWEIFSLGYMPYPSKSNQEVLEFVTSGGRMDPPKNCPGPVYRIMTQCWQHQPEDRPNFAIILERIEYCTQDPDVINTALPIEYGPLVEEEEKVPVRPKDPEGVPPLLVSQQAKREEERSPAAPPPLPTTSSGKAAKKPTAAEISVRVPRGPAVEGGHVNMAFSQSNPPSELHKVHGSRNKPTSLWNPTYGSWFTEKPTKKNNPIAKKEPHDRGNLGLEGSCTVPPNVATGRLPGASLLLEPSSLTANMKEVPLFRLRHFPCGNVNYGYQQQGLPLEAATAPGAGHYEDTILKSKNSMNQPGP
Assay: Ba/F3 cell viability, CellTiter-Glo
Conditions: 50 nM, 72 hours, DMSO as 100, BaF3 EML4-ALK WT; in %
Lab note: compare viability rate of cells with 100, writing criterion met if less and criterion not met if equal or more.

# molecule, label-value
records = [
    ("CCc1nc(C(N)=O)c(Nc2ccc(N3CCC(N4CCN(C)CC4)CC3)c(OC)c2)nc1NC1CCOCC1 [Gilteritinib]", "criterion met"),
    ("CN(C)C/C=C/C(=O)Nc1cc2c(Nc3ccc(F)c(Cl)c3)ncnc2cc1O[C@H]1CCOC1 [Afatinib]", "criterion not met"),
    ("C=CCNC1=C2C[C@@H](C)C[C@H](OC)[C@H](O)[C@@H](C)/C=C(\\C)[C@H](OC(N)=O)[C@@H](OC)/C=C\\C=C(/C)C(=O)NC(=CC1=O)C2=O [17-AAG]", "criterion met"),
    ("C#Cc1cccc(Nc2ncnc3cc(OCCOC)c(OCCOC)cc23)c1 [Erlotinib]", "criterion not met"),
    ("COc1cc2c(Oc3ccc(NC(=O)C4(C(=O)Nc5ccc(F)cc5)CC4)cc3F)ccnc2cc1OCCCN1CCOCC1 [Foretinib]", "criterion met"),
]
